- experimental_system: T1, human GIP receptor (human) (UniProt P48546)
- T1 sequence (looked up): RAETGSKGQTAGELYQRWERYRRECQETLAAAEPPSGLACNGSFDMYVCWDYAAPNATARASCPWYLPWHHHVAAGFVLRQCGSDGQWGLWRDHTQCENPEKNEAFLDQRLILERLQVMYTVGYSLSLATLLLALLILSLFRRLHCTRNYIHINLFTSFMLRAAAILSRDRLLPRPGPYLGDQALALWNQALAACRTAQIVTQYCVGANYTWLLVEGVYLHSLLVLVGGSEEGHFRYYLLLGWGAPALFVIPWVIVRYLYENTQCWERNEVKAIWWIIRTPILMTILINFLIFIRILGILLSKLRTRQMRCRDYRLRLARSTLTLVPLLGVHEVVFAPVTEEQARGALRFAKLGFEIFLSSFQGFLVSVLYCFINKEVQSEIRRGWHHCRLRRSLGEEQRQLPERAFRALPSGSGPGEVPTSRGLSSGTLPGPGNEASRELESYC
- method_description: cell-based or functional assay
Task for the reader: assign each of the following binders its reported cAMP EC50, Batch 1.
One number for each entry, in nM.

Some solved entries appear below for comparison.
binder	cAMP EC50, Batch 1 [nM]
IP188 (Fc fusion) YSEGTFISDYSIAMDKIHQQDFVNWLLAQKAPPGGGGGSGGGGSGGGGSGGGGSATHTCPPCPAPEF	0.0038
IP146 (Fc fusion) HGEGTFTSDVSSYLEGQAAKEFIAWLVKGAAAGGSGSTASSGSGSATGGGGAACPPCPAPEF	83

Now consider a different binder.
Prompt line: Name the reported cAMP EC50, Batch 1 value associated with the binder IP203 (Fc fusion) HGEGTFTSDVSSYLEGQAAKEFIAWLVKGGAAAGGSGSTASSGSGSATGGGGAATHTCPPCPAPEF
Response line: 110
